tested on: COLO 205; experiment: NCI tumour cell line growth inhibition, 48 h
Activity calls are given as the source filed them. Cut-off read from the data, not from the text of the source: active = GI50 up to about 1.1 µM and inactive = higher.
Outcomes: 1.0 = active, 0.0 = inactive

molecule: CS(=O)(=O)OC1CN2CCC1CC2 (configuration not stated)
category: 0.0
--
molecule: Cc1ccc(/C=N/NS(=O)(=O)c2ccccc2)cc1C
category: 0.0
--
molecule: CC(/C=N\NC(=S)N(C)C)=N/NC(=S)N(C)C
category: 1.0
--
molecule: O=C(CC1(O)C(=O)Nc2ccccc21)c1ccncc1 (configuration not stated)
category: 0.0
--
molecule: CC(=O)NC1=C(Nc2ccc(C)cc2)C(=O)c2ccccc2C1=O
category: 0.0
--
molecule: O=C(O)/C=C/C(=O)Nc1cccc2c1-c1ccccc1C2=O
category: 0.0
--
molecule: COc1ccc(C(=O)Nc2ccccc2)cc1[N+](=O)[O-]
category: 0.0
--
molecule: Cc1ccnc2[nH]c3ccccc3c(=O)c12
category: 0.0
--
molecule: Cc1ccc(C(=O)N2CCN(C(=O)c3ccc(C)cc3)c3ccccc32)cc1
category: 0.0
--
molecule: O=C1c2cccc3cc([N+](=O)[O-])cc(c23)C(=O)N1c1ccc(OCCN2CCCC2)cc1
category: 0.0
--
molecule: O=C1Cc2c([nH]c3ccccc23)C2(CC3CCCCN13)OCCO2 (configuration not stated)
category: 0.0
--
molecule: CCOC(=O)c1c(CN2CCNCC2)nc2ccc(Cl)cc2c1-c1ccccc1
category: 0.0

The measurements presented in this section are drawn from ChEMBL document CHEMBL1201862.
